Data credit: paper PMC10537185

The following molecules are listed with their measured IC50 values.
STUDY SYSTEM: HIV-1 RT-RNase H (Human immunodeficiency virus type 1 group M subtype B)
Construct: preparation and purification of wild type p66/p51 HIV-1 RT; made in house
EXPERIMENT: RNase H inhibitory assay (fluorescent RNA/DNA hybrid)
Format: biochemical
CONDITION NOTES: wild type p66/p51 HIV-1 RT
RECORDED ENDPOINT: IC50 (µM)

smiles_repr=Cc1sc2nc(-c3ccc[nH]3)[nH]c(=O)c2c1C reading_qualifier== reported_result=35.3
smiles_repr=Cc1sc2nc(-c3ccc([N+](=O)[O-])s3)[nH]c(=O)c2c1C reading_qualifier=> reported_result=50
smiles_repr=Cc1sc2nc(-c3cccn3C)[nH]c(=O)c2c1C reading_qualifier== reported_result=14.8
smiles_repr=Cc1sc2nc(-c3ccc(O)c(O)c3)[nH]c(=O)c2c1C reading_qualifier== reported_result=0.26
smiles_repr=Cc1ccc(-c2nc3sc(C)c(C)c3c(=O)[nH]2)o1 reading_qualifier== reported_result=14.4
smiles_repr=Cc1sc2nc(-c3cccs3)[nH]c(=O)c2c1C reading_qualifier== reported_result=8.2
smiles_repr=Cc1sc2nc(-c3ccco3)[nH]c(=O)c2c1C reading_qualifier== reported_result=2.5

---

compounds and their reported IC50
STUDY SYSTEM: HIV-1 IN LEDGF/p75-dependent activity (Human immunodeficiency virus type 1 group M subtype B, UniProt P04585)
Construct: Recombinant His and FLAG-IN proteins and His and FLAG-LEDGF proteins were expressed in Escherichia coli strain BL21 (DE3); His or FLAG (separate preparations); made in house; host or cells: Escherichia coli BL21 (DE3)
EXPERIMENT: HTRF LEDGF-dependent IN assay
Format: biochemical
CONDITION NOTES: recombinant IN with LEDGF/p75, HTRF
RECORDED ENDPOINT: IC50 (µM)

smiles_repr=O=c1[nH]c(-c2cccc(O)c2O)nc2sc3c(c12)CCCCC3 recorded_endpoint=IC50 reading_qualifier== reported_result=24
smiles_repr=Cc1sc2nc(-c3cccs3)[nH]c(=O)c2c1C recorded_endpoint=IC50 reading_qualifier=> reported_result=50
smiles_repr=Cc1sc2nc(-c3cccc(O)c3O)[nH]c(=O)c2c1C recorded_endpoint=IC50 reading_qualifier== reported_result=12.6
smiles_repr=Cc1ccc(-c2nc3sc(C)c(C)c3c(=O)[nH]2)o1 recorded_endpoint=IC50 reading_qualifier== reported_result=8.75
smiles_repr=Cc1sc2nc(-c3ccc(O)c(O)c3)[nH]c(=O)c2c1C recorded_endpoint=IC50 reading_qualifier== reported_result=24.4

---

STUDY SYSTEM: HIV-1 IN LEDGF/p75-dependent activity (Human immunodeficiency virus type 1 group M subtype B)
Construct: Recombinant His and FLAG-IN proteins and His and FLAG-LEDGF proteins were expressed in Escherichia coli strain BL21 (DE3); His or FLAG (separate preparations); made in house; host or cells: Escherichia coli BL21 (DE3)
EXPERIMENT: HTRF LEDGF-dependent IN assay
Assay type: biochemical
CONDITION NOTES: recombinant IN with LEDGF/p75, HTRF
Method: Recombinant His and FLAG-IN proteins and His and FLAG-LEDGF proteins were expressed in Escherichia coli strain BL21 (DE3) and purified, as previously described. IN activity in the presence of recombinant LEDGF/p75 protein were determined as described before. IN was pre-incubated in reaction buffer containing 20 mM HEPES pH 7.5, 1 mM DTT, 1% glycerol, 20 mM MgCl2, 0.05% Brij-35 and 0.1 mg/mL BSA with increasing concentration of compounds for 1 h at room temperature. […]
Param label: returns label 1 when IC50 < 6 µM, returns label 0 otherwise, including exact equality.

compound="Cc1sc2nc(-c3cc(O)ccc3O)[nH]c(=O)c2c1C [Compound 13]" category_label="label 0"
compound="Cc1sc2nc(-c3ccccc3O)[nH]c(=O)c2c1C [Compound 11]" category_label="label 0"
compound="O=c1[nH]c(-c2cc(O)ccc2O)nc2sc3c(c12)CCCCC3 [Compound 17]" category_label="label 1"
compound="Cc1sc2nc(-c3ccco3)[nH]c(=O)c2c1C [Compound 21]" category_label="label 1"
compound="Cc1sc2nc(-c3cc(O)cc(O)c3)[nH]c(=O)c2c1C [Compound 14]" category_label="label 1"
compound="Cc1sc2nc(-c3ccc([N+](=O)[O-])s3)[nH]c(=O)c2c1C [Compound 25]" category_label="label 1"

---

STUDY SYSTEM: HIV-1 IN LEDGF/p75-dependent activity (Human immunodeficiency virus type 1 group M subtype B, UniProt P04585)
Construct: Recombinant His and FLAG-IN proteins and His and FLAG-LEDGF proteins were expressed in Escherichia coli strain BL21 (DE3); His or FLAG (separate preparations); made in house; host or cells: Escherichia coli BL21 (DE3)
EXPERIMENT: HTRF LEDGF-dependent IN assay
Format: biochemical
CONDITION NOTES: recombinant IN with LEDGF/p75, HTRF
condition met if IC50 is below 10 µM. condition not met if not; exact matches included in condition not met.

molecule="CC(C)Cc1csc2nc(-c3ccc(O)c(O)c3)[nH]c(=O)c12 [Compound 20]" category_label="condition met"
molecule="Cc1sc2nc(-c3c[nH]c4ccccc34)[nH]c(=O)c2c1C [Compound 26]" category_label="condition met"
molecule="Cc1sc2nc(-c3cccn3C)[nH]c(=O)c2c1C [Compound 28]" category_label="condition not met"
molecule="Cc1sc2nc(-c3ccc([N+](=O)[O-])o3)[nH]c(=O)c2c1C [Compound 23]" category_label="condition met"
molecule="Cc1sc2nc(-c3ccc(O)cc3O)[nH]c(=O)c2c1C [Compound 12]" category_label="condition not met"
molecule="Cc1sc2nc(-c3ccc[nH]3)[nH]c(=O)c2c1C [Compound 27]" category_label="condition not met"
molecule="O=c1[nH]c(-c2ccc(O)c(O)c2)nc2sc3c(c12)CCCCC3 [Compound 9]" category_label="condition not met"
molecule="O=c1[nH]c(-c2cc(O)cc(O)c2)nc2sc3c(c12)CCCCC3 [Compound 18]" category_label="condition met"
